Reference source: PubChem BioAssay (NCI)

# Test system: M19-MEL melanoma
# PROTOCOL_DESCRIPTION: NCI tumour cell line growth inhibition, 48 h
OUTCOME_MEASURE: TGI

[
  {
    "COMPOUND": "Cc1nc2c(c(=O)[nH]1)S/C(=C(/C#N)c1nc3ccccc3[nH]1)N2c1ccccc1",
    "TGI": "> 100 µM"
  }
]

In plain terms, Nc1nc2c(ncn2C2CCC(CO)O2)c(=O)n1C(=O)c1ccccc1 (stereo not drawn) has a documented TGI of > 100 µM

Please fill in: TGI reported for `COc1ccc(/C=N/NC(=O)c2sc(=S)n(-c3ccccc3)c2N)cc1` = > 100 µM

---

# Test system: BT-549 breast
# PROTOCOL_DESCRIPTION: NCI tumour cell line growth inhibition, 48 h; in the data active = GI50 below about 0.43 µM; inactive = the rest
Output constraint: value belongs to active, inactive

[
  {
    "COMPOUND": "COC1=CC(c2ccc[nH]2)=N/C1=C\\c1[nH]c(C)c(CC(=O)OCc2ccccc2)c1CCC(=O)OCc1ccccc1",
    "CLASSIFICATION": "active"
  },
  {
    "COMPOUND": "O=C1c2[nH]cc(CNC3CN4CCC3CC4)c2C(=O)c2c1c(O)c1ccccc1c2O (centres undefined)",
    "CLASSIFICATION": "inactive"
  },
  {
    "COMPOUND": "COC(=O)[C@@H](C)C[C@H](Cc1cn(C)c2ccccc12)NC(=O)c1csc([C@@H](C[C@H](C(C)C)N(C)C(=O)[C@@H](NC(=O)[C@H]2CCCCN2C)C(C)C)OC(C)=O)n1",
    "CLASSIFICATION": "active"
  }
]

Attention now shifts to the item below.
input: Which outcome was assigned to `O=C1/C(=C\c2ccc(F)cc2)CN(C(=O)c2ccccc2)C/C1=C\c1ccc(F)cc1` in this test?
output: inactive

---

# Tested on: MDA-MB-435
# PROTOCOL_DESCRIPTION: NCI tumour cell line growth inhibition, 48 h
Listed below: TGI values for each entry.
Number in µM, nothing else.

// solved cases for TGI follow
[
  {
    "MOLECULE": "COc1ccc(/C=C(/C(=O)N2CCN(c3ccccc3)CC2)c2cc(OC)c(OC)c(OC)c2)cc1N",
    "TEST_VALUE": 0.419
  },
  {
    "MOLECULE": "CC1=NN(c2nc(N)nc(CBr)n2)C(C)(C)C1",
    "TEST_VALUE": 27.8
  },
  {
    "MOLECULE": "c1ccc(N2N=C(c3cccc(Nc4ccncc4)c3)CC2c2ccc3c(c2)OCO3)cc1 (configuration not stated)",
    "TEST_VALUE": 1.47
  },
  {
    "MOLECULE": "C[C@]12CCc3nc(Nc4cccc(O)c4)sc3C1=CC[C@@H]1[C@@H]2CC[C@]2(C)/C(=N\\NC(N)=S)CC[C@@H]12",
    "TEST_VALUE": 4.55
  },
  {
    "MOLECULE": "O=C1C(Cl)=C(Sc2nnc3c4ccccc4c4ccccc4c3n2)C(=O)c2ccccc21",
    "TEST_VALUE": 3.41
  }
]

// TGI value for O=P1(Oc2ccccc2)N=P(c2ccccc2)(c2ccccc2)C=C(c2ccc(Cl)cc2)N1 (configuration not stated) : 17.1
